- target.entity: Human COX II (Homo sapiens)
- Sequence (P35354 18-604): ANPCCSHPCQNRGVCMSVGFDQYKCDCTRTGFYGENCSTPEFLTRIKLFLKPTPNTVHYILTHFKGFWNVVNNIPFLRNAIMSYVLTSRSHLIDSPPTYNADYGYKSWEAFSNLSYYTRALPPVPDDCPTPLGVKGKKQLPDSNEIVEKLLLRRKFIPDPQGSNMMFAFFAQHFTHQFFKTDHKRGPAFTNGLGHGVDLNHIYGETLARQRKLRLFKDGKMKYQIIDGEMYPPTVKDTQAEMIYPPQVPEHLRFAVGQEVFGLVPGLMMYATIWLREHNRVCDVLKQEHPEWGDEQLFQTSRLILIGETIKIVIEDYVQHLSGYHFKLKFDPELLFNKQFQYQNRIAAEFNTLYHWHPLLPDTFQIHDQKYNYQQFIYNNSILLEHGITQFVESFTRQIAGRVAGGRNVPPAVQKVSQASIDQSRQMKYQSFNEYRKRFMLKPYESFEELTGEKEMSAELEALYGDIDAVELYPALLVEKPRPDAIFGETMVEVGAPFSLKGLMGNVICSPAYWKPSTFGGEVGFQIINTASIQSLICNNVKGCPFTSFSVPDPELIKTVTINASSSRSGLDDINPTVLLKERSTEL
- experiment.notes: Evaluation of COX II activity in vitro (recombinant enzyme, PGE2 ELISA)
- applied.conditions: 10 μM arachidonic acid, pre-incubation 10-20 minutes, pH 8.0; read-out: Human COX II ID50
pIC50: −log10 of the molar value.
Readings of pIC50 for the listed compounds

Observe how each entry below is paired with its result.
- compound: "NS(=O)(=O)c1ccc(-n2nc(C(F)(F)F)c3c2-c2ccc(Cl)cc2CS3)cc1"
  target.entity: "Human COX II (Homo sapiens)"
  recorded.endpoint: "pIC50"
  reported.value: "> 7.00"
- compound: "NS(=O)(=O)c1ccc(-n2nc(C(F)(F)F)c3c2-c2ccccc2OC3)cc1"
  target.entity: "Human COX II (Homo sapiens)"
  recorded.endpoint: "pIC50"
  reported.value: 5.89
- compound: "COc1ccc2c(c1F)C[S+]([O-])c1c(C(F)(F)F)nn(-c3ccc(S(N)(=O)=O)cc3)c1-2 (centres unmarked)"
  target.entity: "Human COX II (Homo sapiens)"
  recorded.endpoint: "pIC50"
  reported.value: 5.92
- compound: "NS(=O)(=O)c1ccc(-n2nc(C(F)(F)F)c3c2-c2ccc(Cl)cc2SC3)cc1"
  target.entity: "Human COX II (Homo sapiens)"
  recorded.endpoint: "pIC50"
  reported.value: "> 7.00"
- compound: "Cc1ccc2c(c1)CSc1c(C(F)(F)F)nn(-c3ccc(S(C)(=O)=O)cc3)c1-2"
  target.entity: "Human COX II (Homo sapiens)"
  recorded.endpoint: "pIC50"
  reported.value: "> 7.00"
- compound: "NS(=O)(=O)c1ccc(-n2nc(C(F)(F)F)c3c2-c2ccccc2CS3)cc1"
  target.entity: "Human COX II (Homo sapiens)"
  recorded.endpoint: "pIC50"
  reported.value: "> 7.00"
- compound: "NS(=O)(=O)c1ccc(-n2nc(C(F)(F)F)c3c2-c2cc(Cl)sc2C[S+]3[O-])cc1 (centres unmarked)"
  target.entity: "Human COX II (Homo sapiens)"
  recorded.endpoint: "pIC50"
  reported.value: 4.34

What pIC50 value was documented for this compound, "COc1ccc2c(c1F)CSc1c(C(F)F)nn(-c3ccc(S(N)(=O)=O)cc3)c1-2" ?
> 7.00
